# subjectOfTest: SARS-CoV-2 3CLpro (Severe acute respiratory syndrome coronavirus 2, UniProt P0DTD1)
# assayComment: Surface plasmon resonance analysis (Biacore T200)
# Assay type: binding
pKd: −log10 of the molar value.
endpointName: pKd

>>> quantitativeresult("Cc1cc(O)c2c(=O)c3c(O)cc(O)c4c5c(O)cc(O)c6c(=O)c7c(O)cc(C)c8c1c2c(c34)c(c78)c65")
4.70
>>> quantitativeresult("O=C(/C=C/c1ccc(O)c2c1[C@H](C(=O)O)[C@@H](c1ccc(O)c(O)c1)O2)O[C@H](Cc1ccc(O)c(O)c1)C(=O)O")
4.82
>>> quantitativeresult("C[C@@H]1O[C@@H](O[C@@H]2[C@@H](O)[C@H](OCCc3ccc(O)c(O)c3)O[C@H](CO)[C@H]2OC(=O)/C=C/c2ccc(O)c(O)c2)[C@H](O)[C@H](O)[C@H]1O")
6.39
>>> quantitativeresult("C[C@@H]1O[C@@H](OC[C@H]2O[C@@H](OCCc3ccc(O)c(O)c3)[C@H](O)[C@@H](O)[C@@H]2OC(=O)/C=C/c2ccc(O)c(O)c2)[C@H](O)[C@H](O)[C@H]1O")
5.92
>>> quantitativeresult("O=c1cc(-c2ccc(O)cc2)oc2c([C@@H]3O[C@H](CO)[C@@H](O)[C@H](O)[C@H]3O)c(O)c([C@@H]3O[C@H](CO)[C@@H](O)[C@H](O)[C@H]3O)c(O)c12")
5.07

====

# subjectOfTest: SARS-CoV-2 3CLpro (Severe acute respiratory syndrome coronavirus 2, UniProt P0DTD1)
# assayComment: Surface plasmon resonance analysis (Biacore T200)
# Format: binding
pKd: −log10 of the molar value.
Label rule, in plain words: pKd of 5 and up is criterion met, under 5 is criterion not met.

>>> assignedcategory("C[C@@H]1O[C@@H](OC[C@H]2O[C@@H](Oc3c(-c4ccc(O)cc4)oc4cc(O)cc(O)c4c3=O)[C@H](O)[C@@H](O)[C@@H]2O)[C@H](O)[C@H](O)[C@H]1O")
"criterion met"
>>> assignedcategory("O=C(/C=C/c1ccc(O)c2c1[C@H](C(=O)O[C@H](Cc1ccc(O)c(O)c1)C(=O)O)[C@@H](c1ccc(O)c(O)c1)O2)O[C@H](Cc1ccc(O)c(O)c1)C(=O)O")
"criterion not met"

====

# subjectOfTest: SARS-CoV-2 3CLpro (Severe acute respiratory syndrome coronavirus 2)
# assayComment: Surface plasmon resonance analysis (Biacore T200)
# Assay type: binding
# testContext: SPR, 25 °C, 3CLpro-his captured on CM7 chip; read-out: KD
We begin with a simple list: items and their reported log10 Kd.
endpointName: log10 Kd (log10 of the value in µM)

>>> quantitativeresult("O=c1c(O[C@@H]2O[C@H](CO)[C@H](O)[C@H](O)[C@H]2O)c(-c2ccc(O)c(O)c2)oc2cc(O)cc(O)c12")
1.00
>>> quantitativeresult("O=c1c(O[C@@H]2O[C@H](CO)[C@@H](O)[C@H](O)[C@H]2O[C@@H]2O[C@H](CO)[C@@H](O)[C@H](O)[C@H]2O)c(-c2ccc(O)cc2)oc2cc(O)cc(O)c12")
1.10
>>> quantitativeresult("O=c1c(O)c(-c2ccc(O)cc2)oc2cc(O)cc(O)c12")
1.39
>>> quantitativeresult("COc1cc(-c2oc3cc(O)cc(O)c3c(=O)c2O[C@@H]2O[C@H](CO[C@@H]3O[C@@H](C)[C@H](O)[C@@H](O)[C@H]3O)[C@@H](O)[C@H](O)[C@H]2O)ccc1O [Narcissoside, narcissoside]")
1.00
>>> quantitativeresult("COc1cc(-c2oc3cc(O)cc(O)c3c(=O)c2O[C@@H]2O[C@H](CO)[C@@H](O)[C@H](O)[C@H]2O)ccc1O")
0.98
>>> quantitativeresult("O=C(/C=C/c1ccc(O)c(O)c1)O[C@H]1[C@H](O)C[C@](O)(C(=O)O)C[C@H]1OC(=O)/C=C/c1ccc(O)c(O)c1")
-1.33
>>> quantitativeresult("O=c1c(O[C@@H]2O[C@H](CO[C@@H]3O[C@H](CO)[C@@H](O)[C@H](O)[C@H]3O)[C@@H](O)[C@H](O)[C@H]2O)c(-c2ccc(O)cc2)oc2cc(O)cc(O)c12 [Kaempferol-3-O-gentiobioside, kaempferol-3-O-gentiobioside]")
0.43
>>> quantitativeresult("O=C(/C=C/c1ccc(O)c(O)c1)O[C@@H]1C[C@@](OC(=O)/C=C/c2ccc(O)c(O)c2)(C(=O)O)C[C@@H](O)[C@@H]1O")
1.31

====

# subjectOfTest: UniProt P0DTD1
# testContext: SARS-CoV pIC50 multiplied by similarity index (SI), training set compounds
We begin with a simple list: items and their reported SI*pIC50.
endpointName: SI*pIC50

>>> quantitativeresult("O=c1[nH]c2cc(Cl)cc(Cl)c2c(O)c1Sc1nnnn1-c1ccc(O)cc1")
5.127
>>> quantitativeresult("O=C(Cc1nccs1)c1nccs1")
4.55
>>> quantitativeresult("CC1CCN(S(=O)(=O)c2ccc3c(c2)C(=O)C(=O)N3)CC1")
6.08
>>> quantitativeresult("CCn1c(NCc2ccc(N3N=C(c4ccccc4)CC3c3ccccc3)cc2)nc2ccccc21 (centres unmarked)")
5.228
>>> quantitativeresult("CC(C)c1ccc(N(C(=O)c2ccco2)C(C(=O)NC(C)(C)C)c2cccnc2)cc1 (centres unmarked)")
4.7028
>>> quantitativeresult("COc1cc(C[S+]([O-])c2nc3cccnc3s2)oc(=O)c1 (centres unmarked)")
5.294
>>> quantitativeresult("CCOC(=O)/C=C/[C@H](C[C@@H]1CCNC1=O)NC(=O)[C@H](CC(C)C)NC(=O)[C@@H](NC(=O)[C@H](CO)NC(=O)OC(C)(C)C)C(C)C")
5.152
>>> quantitativeresult("O=C(Nc1ccc(Cl)cc1)c1ccc(CN2C(=O)C(=O)c3cc(I)ccc32)s1")
5.052

====

# subjectOfTest: SARS-CoV-2 3CLpro (Severe acute respiratory syndrome coronavirus 2)
# testContext: SARS-CoV pIC50 multiplied by similarity index (SI), training set compounds
We begin with a simple list: items and their reported SI*pIC50.
endpointName: SI*pIC50

>>> quantitativeresult("CSc1[nH]nc(NC(=O)c2cccs2)c1S(=O)(=O)c1ccccc1")
4.976
>>> quantitativeresult("COc1ccccc1/N=C/c1nc(-c2ccccc2)oc1OC(C)=O")
5.6333
>>> quantitativeresult("O=C(Oc1cncc(Cl)c1)c1cc2ccccc2[nH]1")
7.307
>>> quantitativeresult("COc1ccc(N2C(=O)NC(=O)/C(=C\\c3cc(Cl)c(OCc4cccc(C(=O)O)c4)c(Cl)c3)C2=O)cc1")
5.315
>>> quantitativeresult("CCCn1c(NCc2ccc(N3N=C(c4ccccc4)CC3c3ccccc3)cc2)nc2ccccc21 (stereo not shown)")
5.249
>>> quantitativeresult("O=C(Oc1ccc(S(=O)(=O)c2ccc(OC(=O)C(Cl)=C(Cl)Cl)cc2)cc1)C(Cl)=C(Cl)Cl")
6.198
>>> quantitativeresult("CC1=C(O)C(=O)C=C2C1=CC=C1[C@@]2(C)CC[C@@]2(C)[C@@H]3C[C@@H](C)C(=O)C[C@]3(C)CC[C@]12C")
5.156
>>> quantitativeresult("O=C(/C=C/c1ccccc1)Nc1ccccc1SC(=O)/C=C/c1ccccc1")
6.127
>>> quantitativeresult("O=C1Nc2ccc(S(=O)(=O)N3CCOCC3)cc2C1=O")
5.05
>>> quantitativeresult("O=c1cc(-c2ccc(O)cc2)oc2cc(O)cc(O)c12")
3.704
>>> quantitativeresult("O=C(Oc1cncc(Cl)c1)c1cc2ccccc2s1")
7.152
>>> quantitativeresult("COc1cc(O)c2c(=O)cc(-c3ccc(OC)c(-c4c(O)cc(O)c5c(=O)cc(-c6ccc(O)cc6)oc45)c3)oc2c1")
4.6468
>>> quantitativeresult("CN(C)c1ccc(C(=O)N[C@@H](Cc2ccccc2)C(=O)Nc2ccc([N+](=O)[O-])cc2Cl)cc1")
7.374

====

# subjectOfTest: SARS-CoV-2 3CLpro (Severe acute respiratory syndrome coronavirus 2, UniProt P0DTD1)
# assayComment: Surface plasmon resonance analysis (Biacore T200)
# Type: binding
We begin with a simple list: items and their reported Kd.
endpointName: Kd

>>> result("C[C@@H]1O[C@@H](O[C@H]2[C@H](O[C@H]3CC[C@@]4(C)[C@@H](CC[C@]5(C)[C@H]4CC=C4[C@H]6CC(C)(C)CC[C@]6(C(=O)O[C@@H]6O[C@H](CO[C@@H]7O[C@H](CO)[C@@H](O)[C@H](O)[C@H]7O)[C@@H](O)[C@H](O)[C@H]6O)CC[C@]45C)[C@]3(C)CO)OC[C@H](O)[C@@H]2O)[C@H](O)[C@H](O)[C@H]1O")
"10.9 µM"
>>> result("O=c1cc(-c2ccc(O)cc2)oc2c([C@@H]3O[C@H](CO)[C@@H](O)[C@H](O)[C@H]3O)c(O)c([C@@H]3OC[C@H](O)[C@H](O)[C@H]3O)c(O)c12 [Isoschaftoside, isoschaftoside]")
"11.4 µM"
>>> result("C[C@@H](CC[C@]1(O)O[C@H]2C[C@H]3[C@@H]4CC[C@@H]5C[C@@H](O[C@@H]6O[C@H](CO)[C@H](O)[C@H](O)[C@H]6O[C@@H]6O[C@H](CO)[C@@H](O)[C@H](O)[C@H]6O)CC[C@]5(C)[C@H]4CC[C@]3(C)[C@H]2[C@@H]1C)CO[C@@H]1O[C@H](CO)[C@@H](O)[C@H](O)[C@H]1O")
"7.2 µM"
